conditions: in MIBK, 287.16 K
REPORTED_ENDPOINT: solubility (mole fraction)
Give the figure by itself; no unit, no explanation.

Name the recorded solubility (mole fraction) for O=C(O)c1ccccc1 . 0.139

----------
details: in isobutyl acetate, 277.86 K
REPORTED_ENDPOINT: solubility (mole fraction)
Give the figure by itself; no unit, no explanation.

Name the recorded solubility (mole fraction) for CC(=O)Oc1ccccc1C(=O)O . 0.0109

----------
conditions: in n-butanol, 287.35 K
REPORTED_ENDPOINT: solubility (mole fraction)
Give the figure by itself; no unit, no explanation.

Name the recorded solubility (mole fraction) for CC(=O)Oc1ccccc1C(=O)O . 0.0232

----------
conditions: in n-butanol, 297.37 K
REPORTED_ENDPOINT: solubility (mole fraction)

Name the recorded solubility (mole fraction) for CC(=O)Oc1ccccc1C(=O)O . 0.036

----------
settings: in n-propanol, 324.75 K
REPORTED_ENDPOINT: solubility (mole fraction)
Give the figure by itself; no unit, no explanation.

Name the recorded solubility (mole fraction) for CC(=O)Oc1ccccc1C(=O)O . 0.121

----------
details: in methanol, 278 K
REPORTED_ENDPOINT: solubility (mole fraction)
Give the figure by itself; no unit, no explanation.

Name the recorded solubility (mole fraction) for O=C(O)c1ccccc1 . 0.111

----------
conditions: in n-butanol, 323.44 K
REPORTED_ENDPOINT: solubility (mole fraction)
Give the figure by itself; no unit, no explanation.

Name the recorded solubility (mole fraction) for CC(=O)Oc1ccccc1C(=O)O . 0.103

----------
conditions: in isobutanol, 326.57 K
REPORTED_ENDPOINT: solubility (mole fraction)
Give the figure by itself; no unit, no explanation.

Name the recorded solubility (mole fraction) for CC(=O)Oc1ccccc1C(=O)O . 0.1

----------
settings: in MIBK, 312.47 K
REPORTED_ENDPOINT: solubility (mole fraction)
Give the figure by itself; no unit, no explanation.

Name the recorded solubility (mole fraction) for CC(=O)Oc1ccccc1C(=O)O . 0.0594

----------
conditions: in n-propanol, 297.85 K
REPORTED_ENDPOINT: solubility (mole fraction)
Give the figure by itself; no unit, no explanation.

Name the recorded solubility (mole fraction) for CC(=O)Oc1ccccc1C(=O)O . 0.0434

----------
conditions: in 2-butanone, 278.65 K
REPORTED_ENDPOINT: solubility (mole fraction)
Give the figure by itself; no unit, no explanation.

Name the recorded solubility (mole fraction) for O=C(O)c1ccccc1 . 0.131

----------
settings: in ethyl acetate, 289.24 K
REPORTED_ENDPOINT: solubility (mole fraction)
Give the figure by itself; no unit, no explanation.

Name the recorded solubility (mole fraction) for O=C(O)c1ccccc1 . 0.133

----------
settings: in 2-butanone, 313.04 K
REPORTED_ENDPOINT: solubility (mole fraction)

Name the recorded solubility (mole fraction) for O=C(O)c1ccccc1 . 0.254

----------
conditions: in n-propanol, 276.36 K
REPORTED_ENDPOINT: solubility (mole fraction)
Give the figure by itself; no unit, no explanation.

Name the recorded solubility (mole fraction) for CC(=O)Oc1ccccc1C(=O)O . 0.0164

----------
conditions: in MIBK, 287.96 K
REPORTED_ENDPOINT: solubility (mole fraction)
Give the figure by itself; no unit, no explanation.

Name the recorded solubility (mole fraction) for CC(=O)Oc1ccccc1C(=O)O . 0.0283

----------
details: in isobutyl acetate, 281.16 K
REPORTED_ENDPOINT: solubility (mole fraction)
Give the figure by itself; no unit, no explanation.

Name the recorded solubility (mole fraction) for CC(=O)Oc1ccccc1C(=O)O . 0.0124

----------
details: in isobutyl acetate, 327.15 K
REPORTED_ENDPOINT: solubility (mole fraction)

Name the recorded solubility (mole fraction) for CC(=O)Oc1ccccc1C(=O)O . 0.0559

----------
conditions: in n-propanol, 304.75 K
REPORTED_ENDPOINT: solubility (mole fraction)
Give the figure by itself; no unit, no explanation.

Name the recorded solubility (mole fraction) for O=C(O)c1ccccc1 . 0.2

----------
conditions: in ethyl acetate, 315.16 K
REPORTED_ENDPOINT: solubility (mole fraction)
Give the figure by itself; no unit, no explanation.

Name the recorded solubility (mole fraction) for CC(=O)Oc1ccccc1C(=O)O . 0.0564

----------
details: in isobutanol, 308.26 K
REPORTED_ENDPOINT: solubility (mole fraction)
Give the figure by itself; no unit, no explanation.

Name the recorded solubility (mole fraction) for CC(=O)Oc1ccccc1C(=O)O . 0.0469

----------
conditions: in n-propanol, 302.55 K
REPORTED_ENDPOINT: solubility (mole fraction)
Give the figure by itself; no unit, no explanation.

Name the recorded solubility (mole fraction) for CC(=O)Oc1ccccc1C(=O)O . 0.0527

----------
details: in ethyl acetate, 308.68 K
REPORTED_ENDPOINT: solubility (mole fraction)
Give the figure by itself; no unit, no explanation.

Name the recorded solubility (mole fraction) for CC(=O)Oc1ccccc1C(=O)O . 0.0467

----------
details: in n-propanol, 288.16 K
REPORTED_ENDPOINT: solubility (mole fraction)

Name the recorded solubility (mole fraction) for CC(=O)Oc1ccccc1C(=O)O . 0.0286

----------
settings: in isobutanol, 299.16 K
REPORTED_ENDPOINT: solubility (mole fraction)
Give the figure by itself; no unit, no explanation.

Name the recorded solubility (mole fraction) for CC(=O)Oc1ccccc1C(=O)O . 0.0309

----------
details: in n-butanol, 282.35 K
REPORTED_ENDPOINT: solubility (mole fraction)
Give the figure by itself; no unit, no explanation.

Name the recorded solubility (mole fraction) for CC(=O)Oc1ccccc1C(=O)O . 0.0183

----------
conditions: in isobutanol, 316.87 K
REPORTED_ENDPOINT: solubility (mole fraction)
Give the figure by itself; no unit, no explanation.

Name the recorded solubility (mole fraction) for CC(=O)Oc1ccccc1C(=O)O . 0.0679

----------
settings: in n-propanol, 311.66 K
REPORTED_ENDPOINT: solubility (mole fraction)
Give the figure by itself; no unit, no explanation.

Name the recorded solubility (mole fraction) for CC(=O)Oc1ccccc1C(=O)O . 0.0752

----------
conditions: in methanol, 285.5 K
REPORTED_ENDPOINT: solubility (mole fraction)
Give the figure by itself; no unit, no explanation.

Name the recorded solubility (mole fraction) for O=C(O)c1ccccc1 . 0.129

----------
conditions: in n-propanol, 310.06 K
REPORTED_ENDPOINT: solubility (mole fraction)
Give the figure by itself; no unit, no explanation.

Name the recorded solubility (mole fraction) for O=C(O)c1ccccc1 . 0.221

----------
details: in n-propanol, 289.26 K
REPORTED_ENDPOINT: solubility (mole fraction)
Give the figure by itself; no unit, no explanation.

Name the recorded solubility (mole fraction) for O=C(O)c1ccccc1 . 0.148

----------
conditions: in MIBK, 300.18 K
REPORTED_ENDPOINT: solubility (mole fraction)
Give the figure by itself; no unit, no explanation.

Name the recorded solubility (mole fraction) for CC(=O)Oc1ccccc1C(=O)O . 0.0414

----------
conditions: in MIBK, 307.27 K
REPORTED_ENDPOINT: solubility (mole fraction)
Give the figure by itself; no unit, no explanation.

Name the recorded solubility (mole fraction) for CC(=O)Oc1ccccc1C(=O)O . 0.0511

----------
settings: in ethyl acetate, 327.91 K
REPORTED_ENDPOINT: solubility (mole fraction)
Give the figure by itself; no unit, no explanation.

Name the recorded solubility (mole fraction) for CC(=O)Oc1ccccc1C(=O)O . 0.0807

----------
conditions: in methanol, 298.99 K
REPORTED_ENDPOINT: solubility (mole fraction)
Give the figure by itself; no unit, no explanation.

Name the recorded solubility (mole fraction) for O=C(O)c1ccccc1 . 0.164

----------
details: in MIBK, 292.73 K
REPORTED_ENDPOINT: solubility (mole fraction)
Give the figure by itself; no unit, no explanation.

Name the recorded solubility (mole fraction) for O=C(O)c1ccccc1 . 0.156

----------
settings: in MIBK, 276.45 K
REPORTED_ENDPOINT: solubility (mole fraction)
Give the figure by itself; no unit, no explanation.

Name the recorded solubility (mole fraction) for O=C(O)c1ccccc1 . 0.11

----------
settings: in n-butanol, 311.66 K
REPORTED_ENDPOINT: solubility (mole fraction)
Give the figure by itself; no unit, no explanation.

Name the recorded solubility (mole fraction) for O=C(O)c1ccccc1 . 0.234

----------
conditions: in n-propanol, 299.65 K
REPORTED_ENDPOINT: solubility (mole fraction)
Give the figure by itself; no unit, no explanation.

Name the recorded solubility (mole fraction) for O=C(O)c1ccccc1 . 0.182

----------
details: in isobutanol, 320.96 K
REPORTED_ENDPOINT: solubility (mole fraction)
Give the figure by itself; no unit, no explanation.

Name the recorded solubility (mole fraction) for CC(=O)Oc1ccccc1C(=O)O . 0.0807
